Measured concentration at 4 h, listed per entry.
assay-overview: Blood, urine and tissue concentrations in mice after oral administration (microbiological assay with Bacillus pumilus)
Type: in vivo
run-conditions: lung, po, 2mg/mouse P.O., 4 hours, tissue homogenate, read-out: Concentration at 4HRS in: Lung
Just the number in ng/mL, nothing appended.

| smiles-code | concentration at 4 h / ng/mL |
| --- | --- |
| CC(C)(C)c1cc(Cc2cnc(N)nc2N)cc(C(C)(C)C)c1O | 11200 |

Query: Param item = CCCc1cc(Cc2cnc(N)nc2N)cc(CCC)c1O ; retrieve measured concentration at 4 h.
Response: 1800

Query: Param item = CCc1cc(Cc2cnc(N)nc2N)cc(CC)c1O ; retrieve measured concentration at 4 h.
Response: 1750

Query: Param item = CCCc1cc(Cc2cnc(N)nc2N)cc(CC)c1O ; retrieve measured concentration at 4 h.
Response: 3600

Query: Param item = CC(C)c1cc(Cc2cnc(N)nc2N)cc(C(C)C)c1O ; retrieve measured concentration at 4 h.
Response: 2600

----------
assay-overview: Acute oral toxicity in mice
run-conditions: mouse, in vivo, male mice, read-out: LD50 (mice) male
measured-metric: LD50 (mg/kg)
Just the number in mg/kg, nothing appended.

Query: Param item = CC(C)c1cc(Cc2cnc(N)nc2N)cc(C(C)C)c1O ; retrieve measured LD50.
Response: 2830

----------
assay-overview: Blood, urine and tissue concentrations in mice after oral administration (microbiological assay with Bacillus pumilus)
Format: in vivo
run-conditions: liver, po, 2mg/mouse P.O., 4 hours, tissue homogenate, read-out: Concentration at 4HRS in: Liver
Experimental: Also shown in Table 1 is the concentration of each of the compounds in the blood urine and tissues of mice after oral administration. These concent rations were determined as described hereafter. […] The concentrations of the drugs were determined microbiologically, using Bacillus pumilus, those in the urine determined both before and after 18 hours incubation with Glusalase (gluecuronidase and sulfatase).
Measured concentration at 4 h, listed per entry.
Just the number in ng/mL, nothing appended.

Query: Param item = CC(C)c1cc(Cc2cnc(N)nc2N)cc(C(C)C)c1O ; retrieve measured concentration at 4 h.
Response: 8300

Query: Param item = CCCc1cc(Cc2cnc(N)nc2N)cc(CCC)c1O ; retrieve measured concentration at 4 h.
Response: 3750

Query: Param item = CC(C)(C)c1cc(Cc2cnc(N)nc2N)cc(C(C)(C)C)c1O ; retrieve measured concentration at 4 h.
Response: 6000

Query: Param item = COc1cc(Cc2cnc(N)nc2N)cc(OC)c1OC [TMP, reference compound] ; retrieve measured concentration at 4 h.
Response: 1080

Query: Param item = CCCc1cc(Cc2cnc(N)nc2N)cc(CC)c1O ; retrieve measured concentration at 4 h.
Response: 5000

Query: Param item = CCc1cc(Cc2cnc(N)nc2N)cc(CC)c1O ; retrieve measured concentration at 4 h.
Response: 1940
